These entries and their values trace back to ChEMBL document CHEMBL5316326.

assay: Cmax in Sprague-Dawley rat at 100 mg/kg, po and measured upto 24 hrs by LC-MS/MS analysis; type: ADME, organism-based; set-up: dose 100 mg/kg, time < 24 hrs, route po; details: in vivo
measured.parameter: Cmax (ng/mL)
Please respond with the number in ng/mL and leave the unit unwritten.

Ask: Tell me Cmax reported for `C=CC(=O)Nc1ccc(C)c(-c2cc(C(=O)NCc3c(C)cc(C)[nH]c3=O)c(C)c(N(CC)C3CCOCC3)c2)c1`
Reply: 6740

###

assay: Oral bioavailability in Sprague-Dawley rat at 100 mg/kg and measured upto 24 hrs by LC-MS/MS analysis; type: ADME, organism-based; conditions: in vivo
measured.parameter: bioavailability (%)
Please respond with the number in % and leave the unit unwritten.

Ask: Tell me bioavailability reported for `C=CC(=O)Nc1ccc(C)c(-c2cc(C(=O)NCc3c(C)cc(C)[nH]c3=O)c(C)c(N(CC)C3CCOCC3)c2)c1`
Reply: 8.73

###

assay: Antiproliferative activity against human COV362 cells assessed as inhibition of cell proliferation incubated for 72 hrs by MTT assay; format: functional, cell-based; settings: COV362, 72 h
pIC50: −log10 of the molar value.
measured.parameter: pIC50

CC[C@H](C)n1cc(C)c2c(C(=O)NCc3c(C)cc(C)[nH]c3=O)cc(-c3ccc(N4CCNCC4)nc3)cc21: < 4.00

Ask: Tell me pIC50 reported for `C=CC(=O)Nc1ccc(C)c(-c2cc(C(=O)NCc3c(C)cc(C)[nH]c3=O)c(C)c(N(CC)C3CCOCC3)c2)c1`
Reply: < 4.00

Ask: Tell me pIC50 reported for `CCC(=O)Nc1cccc(-c2cc(C(=O)NCc3c(C)cc(C)[nH]c3=O)c(C)c(N(CC)C3CCOCC3)c2)c1`
Reply: < 4.00

Ask: Tell me pIC50 reported for `CCC(=O)Nc1ccc(C)c(-c2cc(C(=O)NCc3c(C)cc(C)[nH]c3=O)c(C)c(N(CC)C3CCOCC3)c2)c1`
Reply: < 4.00

Ask: Tell me pIC50 reported for `C=CC(=O)Nc1cccc(-c2cc(C(=O)NCc3c(C)cc(C)[nH]c3=O)c(C)c(N(CC)C3CCOCC3)c2)c1`
Reply: < 4.00

Ask: Tell me pIC50 reported for `CCN(c1cc(-c2ccc(CN3CCOCC3)cc2)cc(C(=O)NCc2c(C)cc(C)[nH]c2=O)c1C)C1CCOCC1`
Reply: < 4.00

###

In this section we review reported IC50 values for a set of compounds.
test system: ES-2; assay: Antiproliferative activity against human ES2 cells assessed as inhibition of cell proliferation incubated for 72 hrs by MTT assay; assay type: functional, cell-based; details: ES-2, 72 h
Please respond with the number in µM and leave the unit unwritten.

Worked set:
CCC(=O)Nc1ccc(C)c(-c2cc(C(=O)NCc3c(C)cc(C)[nH]c3=O)c(C)c(N(CC)C3CCOCC3)c2)c1: 89.5
C=CC(=O)Nc1ccc(C)c(-c2cc(C(=O)NCc3c(C)cc(C)[nH]c3=O)c(C)c(N(CC)C3CCOCC3)c2)c1: 36.4
CC[C@H](C)n1cc(C)c2c(C(=O)NCc3c(C)cc(C)[nH]c3=O)cc(-c3ccc(N4CCNCC4)nc3)cc21 [GSK2816126]: 32.2
CCN(c1cc(-c2ccc(CN3CCOCC3)cc2)cc(C(=O)NCc2c(C)cc(C)[nH]c2=O)c1C)C1CCOCC1 [TAZEMETOSTAT]: 79

# input for lookup
Ask: Tell me IC50 reported for `C=CC(=O)Nc1cccc(-c2cc(C(=O)NCc3c(C)cc(C)[nH]c3=O)c(C)c(N(CC)C3CCOCC3)c2)c1`
Reply: 38.6

###

assay: AUCt in Sprague-Dawley rat at 100 mg/kg, po and measured upto 24 hrs by LC-MS/MS analysis; type: ADME, organism-based; design: time < 24 hrs, dose 100 mg/kg, route po; conditions: in vivo
measured.parameter: AUC(0-t) at 24 h (ng·h/mL)
Please respond with the number in ng·h/mL and leave the unit unwritten.

Ask: Tell me AUC(0-t) at 24 h reported for `C=CC(=O)Nc1ccc(C)c(-c2cc(C(=O)NCc3c(C)cc(C)[nH]c3=O)c(C)c(N(CC)C3CCOCC3)c2)c1`
Reply: 12600

###

In this section we review reported pIC50 values for a set of molecules.
tested on: SK-OV-3; assay: Antiproliferative activity against human SK-OV-3 cells assessed as inhibition of cell proliferation incubated for 72 hrs by MTT assay; assay type: functional, cell-based; conditions: SK-OV-3, 72 h
pIC50 here: minus log base 10 of the concentration, concentration in moles per litre.

Worked set:
CC[C@H](C)n1cc(C)c2c(C(=O)NCc3c(C)cc(C)[nH]c3=O)cc(-c3ccc(N4CCNCC4)nc3)cc21 [GSK2816126]: 4.16
C=CC(=O)Nc1cccc(-c2cc(C(=O)NCc3c(C)cc(C)[nH]c3=O)c(C)c(N(CC)C3CCOCC3)c2)c1: 4.38
CCN(c1cc(-c2ccc(CN3CCOCC3)cc2)cc(C(=O)NCc2c(C)cc(C)[nH]c2=O)c1C)C1CCOCC1 [TAZEMETOSTAT]: 4.05

Ask: Report pIC50 under test system SK-OV-3 for `C=CC(=O)Nc1ccc(C)c(-c2cc(C(=O)NCc3c(C)cc(C)[nH]c3=O)c(C)c(N(CC)C3CCOCC3)c2)c1` .
Reply: 4.25

###

experiment: Half life in Sprague-Dawley rat at 100 mg/kg, po and measured upto 24 hrs by LC-MS/MS analysis; format: ADME, organism-based; details: in vivo
measured.parameter: half-life (min)
Please respond with the number in min and leave the unit unwritten.

Ask: Tell me half-life reported for `C=CC(=O)Nc1ccc(C)c(-c2cc(C(=O)NCc3c(C)cc(C)[nH]c3=O)c(C)c(N(CC)C3CCOCC3)c2)c1`
Reply: 46.2

###

assay: Tmax in Sprague-Dawley rat at 5 mg/kg, iv and measured upto 24 hrs by LC-MS/MS analysis; type: ADME, organism-based; conditions: in vivo
measured.parameter: Tmax (min)
Please respond with the number in min and leave the unit unwritten.

Ask: Tell me Tmax reported for `C=CC(=O)Nc1ccc(C)c(-c2cc(C(=O)NCc3c(C)cc(C)[nH]c3=O)c(C)c(N(CC)C3CCOCC3)c2)c1`
Reply: 4.8
